Experimental system: XIAP BIR3 (Homo sapiens (Human), UniProt P98170)
Sequence (P98170 241-356): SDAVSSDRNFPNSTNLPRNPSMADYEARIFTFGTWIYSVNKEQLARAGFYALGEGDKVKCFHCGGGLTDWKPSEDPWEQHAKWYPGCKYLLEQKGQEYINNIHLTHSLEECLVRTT
Experimental details: XIAP BIR3 Ki
Format: binding
Applied conditions: Table B-1
Reported property: Ki

See these solved cases before continuing.
Compound	Ki
CN[C@@H](C)C(=O)N[C@H]1CCCN(C(C)=O)C2CCC(C(=O)NC3CCCc4ccccc43)N2C1=O (some centres unmarked)	≤ 25 µM
CN[C@@H](C)C(=O)N[C@H]1CCO[C@H]2CC(C)(C)[C@@H](C(=O)N[C@@H]3CCCc4ccccc43)N2C1=O	≤ 25 µM
CN[C@@H](C)C(=O)N[C@H]1CCS(=O)(=O)[C@H]2CC[C@H](C(=O)N[C@@H]3CCCc4ccccc43)N2C1=O	25 to 50 µM
CN[C@@H](C)C(=O)N[C@H]1CCS[C@H]2CCCC(C(=O)N[C@@H]3CCCc4ccccc43)N2C1=O (some centres unmarked)	≤ 25 µM
CN[C@@H](C)C(=O)N[C@H]1Cc2c([nH]c3ccccc23)[C@H]2CCC(C(=O)N[C@@H]3CCCc4ccccc43)N2C1=O (some centres unmarked) [Compound 31]	≤ 25 µM

-- ask Param item = CN[C@@H](C)C(=O)N[C@H]1CO[C@H]2CCC(C(=O)Nc3ccc(OC)cc3)N2C1=O (some centres unmarked) [Compound 4] ; retrieve measured Ki.
-- reply 25 to 50 µM

-- ask Param item = CN[C@@H](C)C(=O)N[C@H]1CCN[C@H]2CCC(C(=O)N[C@@H]3CCCc4ccccc43)N2C1=O (some centres unmarked) [Compound 28] ; retrieve measured Ki.
-- reply 25 to 50 µM

-- ask Param item = `CN[C@@H](C)C(=O)N[C@H]1CCS(=O)(=O)[C@H]2CC[C@@H](C(=O)N[C@@H]3CCCc4ccccc43)N2C1=O` ; retrieve measured Ki.
-- reply ≤ 25 µM

-- ask Param item = `CN[C@@H](C)C(=O)N[C@H]1CCO[C@H]2CC[C@@H](C(=O)Nc3cccc4ccccc34)N2C1=O` ; retrieve measured Ki.
-- reply ≤ 25 µM

-- ask Param item = CN[C@@H](C)C(=O)N[C@H]1CCO[C@H]2CCC(C(=O)n3ccc4ccccc43)N2C1=O (some centres unmarked) [Compound 22] ; retrieve measured Ki.
-- reply 25 to 50 µM

-- ask Param item = CN[C@@H](C)C(=O)N[C@H]1CCN[C@H]2CCC(C(=O)N[C@@H]3CCCc4ccccc43)N2C1=O (some centres unmarked) [Compound 29] ; retrieve measured Ki.
-- reply > 50 µM

-- ask Param item = CN[C@@H](C)C(=O)N[C@H]1Cc2ccc(O)cc2[C@H]2CC(C)(C)C(C(=O)N[C@@H]3CCCc4ccccc43)N2C1=O (some centres unmarked) ; retrieve measured Ki.
-- reply ≤ 25 µM

-- ask Param item = CN[C@@H](C)C(=O)N[C@H]1CCO[C@H]2CC(C)(C)C(C(=O)Nc3ccccc3SSc3ccccc3NC(=O)C3N4C(=O)[C@@H](NC(=O)[C@H](C)NC)CCO[C@H]4CC3(C)C)N2C1=O (some centres unmarked) ; retrieve measured Ki.
-- reply ≤ 25 µM

-- ask Param item = CN[C@@H](C)C(=O)N[C@@H]1C(=O)N2C(C(=O)NC3CCCc4ccccc43)CC[C@@H]2O[C@@H]1C (some centres unmarked) ; retrieve measured Ki.
-- reply ≤ 25 µM

-- ask Param item = CN[C@@H](C)C(=O)N[C@H]1CCO[C@H]2CCC(C(=O)Nc3cccc4ccccc34)N2C1=O (some centres unmarked) ; retrieve measured Ki.
-- reply ≤ 25 µM

-- ask Param item = CN[C@@H](C)C(=O)N[C@H]1CCO[C@H]2CC3(CCCC3)C(C(=O)N[C@@H]3CCCc4ccccc43)N2C1=O (some centres unmarked) ; retrieve measured Ki.
-- reply ≤ 25 µM

-- ask Param item = CN[C@@H](C)C(=O)N[C@H]1CO[C@H]2CCC(C(=O)NC3CCCc4ccccc43)N2C1=O (some centres unmarked) ; retrieve measured Ki.
-- reply ≤ 25 µM

-- ask Param item = CN[C@@H](C)C(=O)N[C@H]1CCS[C@H]2CC(C)(C)C(C(=O)N[C@@H]3CCCc4ccccc43)N2C1=O (some centres unmarked) ; retrieve measured Ki.
-- reply ≤ 25 µM

-- ask Param item = `CN[C@@H](C)C(=O)N[C@H]1CCO[C@H]2CC[C@H](C(=O)N[C@@H]3CCOc4ccccc43)N2C1=O` ; retrieve measured Ki.
-- reply 25 to 50 µM

-- ask Param item = `CN[C@@H](C)C(=O)N[C@H]1CCO[C@H]2CC[C@@H](C(=O)N[C@@H]3CCCc4ccccc43)N2C1=O` ; retrieve measured Ki.
-- reply ≤ 25 µM

-- ask Param item = CN[C@@H](C)C(=O)N[C@@H]1C(=O)N2C(C(=O)NC(c3ccccc3)c3ccccc3)CC[C@@H]2O[C@@H]1C (some centres unmarked) ; retrieve measured Ki.
-- reply 25 to 50 µM

-- ask Param item = CN[C@@H](C)C(=O)N[C@H]1CCS[C@H]2CCC(C(=O)N[C@@H]3CCCc4ccccc43)N2C1=O (some centres unmarked) ; retrieve measured Ki.
-- reply ≤ 25 µM

----------
Experimental system: XIAP BIR1/2 (Homo sapiens (Human))
Experimental details: XIAP BIR1/2 Ki
Assay type: binding
Applied conditions: Table B-1
Reported property: Ki

See these solved cases before continuing.
>>> df
                                   molecule                 experimental_system  reported_property  measured
0  CN[C@@H](C)C(=O)N[C@H]1CCO[C@H]2CCC(C(=O)Nc3cccc4ccccc34)N2C1=O (stereo partly shown)  XIAP BIR1/2 (Homo sapiens (Human))                 Ki   ≤ 25 µM
1  CN[C@@H](C)C(=O)N[C@H]1CCO[C@H]2CC[C@@H](C(=O)N[C@@H]3CCOc4ccccc43)N2C1=O  XIAP BIR1/2 (Homo sapiens (Human))                 Ki   > 50 µM
2  CN[C@@H](C)C(=O)N[C@H]1CCO[C@H]2CCC(C(=O)n3ccc4ccccc43)N2C1=O (stereo partly shown)  XIAP BIR1/2 (Homo sapiens (Human))                 Ki   > 50 µM

Kindly review the next molecule as well.
-- ask Param item = `CN[C@@H](C)C(=O)N[C@H]1CCS[C@H]2CC[C@H](C(=O)N[C@@H]3CCCc4ccccc43)N2C1=O` ; retrieve measured Ki.
-- reply > 50 µM

----------
Experimental system: XIAP BIR1/2 (Homo sapiens (Human), UniProt P98170)
Sequence (P98170 1-240): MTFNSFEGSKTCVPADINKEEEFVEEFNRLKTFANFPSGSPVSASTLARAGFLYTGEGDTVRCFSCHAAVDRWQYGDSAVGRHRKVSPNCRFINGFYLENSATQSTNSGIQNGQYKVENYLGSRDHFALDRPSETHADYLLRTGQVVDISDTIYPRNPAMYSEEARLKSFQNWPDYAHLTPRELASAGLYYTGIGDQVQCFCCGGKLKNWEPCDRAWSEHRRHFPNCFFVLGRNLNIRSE
Experimental details: XIAP BIR1/2 Ki
Format: binding
Applied conditions: Table 2-2
Listing: Ki of selected molecules

>>> df
                                   molecule                       experimental_system  reported_property  measured
0  CN[C@@H](C)C(=O)N[C@H]1CCO[C@H]2c3ccccc3C(C(=O)N[C@@H]3CCCc4ccccc43)N2C1=O (some centres unmarked) [Compound 17a]  XIAP BIR1/2 (Homo sapiens (Human), UniProt P98170)                 Ki   > 50 µM

-- ask So what Ki did CN[C@@H](C)C(=O)N[C@H]1CCO[C@H]2CC(C)(C)C(C(=O)N[C@@H]3CCCc4ccccc43)N2C1=O (some centres unmarked) [Compound 17b] get with XIAP BIR1/2 (Homo sapiens (Human), UniProt P98170)?
-- reply ≤ 25 µM

----------
Experimental system: XIAP BIR3 (Homo sapiens (Human))
Experimental details: XIAP BIR3 Ki
Format: binding
Applied conditions: Table B-1
pKi: −log10 of the molar value.
Reported property: pKi

See these solved cases before continuing.
In [3]: df
Out[3]:
                                   compound               experimental_system      measured
0  CN[C@@H](C)C(=O)N[C@H]1CCO[C@H]2c3ccccc3C(C(=O)N[C@@H]3CCCc4ccccc43)N2C1=O (stereo partly shown)  XIAP BIR3 (Homo sapiens (Human))        ≥ 4.60
1  CN[C@@H](C)C(=O)N[C@H]1CO[C@H]2CCC(C(=O)NCc3ccccc3)N2C1=O (stereo partly shown) [Compound 5]  XIAP BIR3 (Homo sapiens (Human))  4.30 to 4.60
2  CN[C@@H](C)C(=O)N[C@@H]1C(=O)N2C(C(=O)Nc3cccc4ccccc34)CC[C@@H]2O[C@@H]1C (stereo partly shown)  XIAP BIR3 (Homo sapiens (Human))  4.30 to 4.60
3  CN[C@@H](C)C(=O)N[C@H]1CCO[C@H]2CC3(CC=CC3)C(C(=O)N[C@@H]3CCCc4ccccc43)N2C1=O (stereo partly shown)  XIAP BIR3 (Homo sapiens (Human))        ≥ 4.60
4  CC(=O)N(C)[C@@H](C)C(=O)N[C@H]1CCCN(C(C)=O)[C@H]2CCC(C(=O)Nc3cccc4ccccc34)N2C1=O (stereo partly shown) [Compound 18]  XIAP BIR3 (Homo sapiens (Human))  4.30 to 4.60

-- ask Param item = CN[C@@H](C)C(=O)N[C@H]1CCO[C@H]2CCC(C(=O)NC(c3ccccc3)c3ccccc3)N2C1=O (stereo partly shown) ; retrieve measured pKi.
-- reply ≥ 4.60

-- ask Param item = CN[C@@H](C)C(=O)N[C@H]1CCO[C@H]2CCC(C(=O)n3ccc4ccccc43)N2C1=O (stereo partly shown) [Compound 23] ; retrieve measured pKi.
-- reply 4.30 to 4.60
